Origin of measurements: ChEMBL document CHEMBL1141905

- systemTested: UniProt P07858
- experimentalDetails: Apparent inhibitory constant against human cathepsin B
Provide the reported log10(Ki'') of each item.
Give log10 of Ki'', with Ki'' taken in nM.

Would you please look over these solved cases?
CC(=O)O[C@@H]1NC(=O)[C@H]1NC(=O)C1(NC(=O)c2ccc(N3CCOCC3)cc2)CCCCC1; 2.99
CC(=O)O[C@@H]1NC(=O)[C@H]1NC(=O)C1(NC(=O)c2ccc(-c3csc(N4CCN(C)CC4)n3)cc2)CCCCC1; 2.97
CC(=O)O[C@@H]1NC(=O)[C@H]1NC(=O)C1(NC(=O)c2ccc(Cl)cc2)CCCCC1; 3.32
CC(=O)O[C@@H]1NC(=O)[C@H]1NC(=O)C1(NC(=O)c2ccc(-c3csc(NN4CCN(C)CC4)n3)cc2)CCCCC1; 1.96

For each of the compounds below, state log10(Ki'').
1. CN1CCN(Nc2nc(-c3ccc(C(=O)NC4(C(=O)N[C@@H]5C(=O)N[C@@H]5Oc5ccccc5)CCCCC4)cc3)cs2)CC1
2. CC(=O)O[C@@H]1NC(=O)[C@H]1NC(=O)C1(NC(=O)c2ccc(N3CCN(C)CC3)cc2)CCCCC1
3. CN(C)c1nc(-c2ccc(C(=O)NC3(C(=O)N[C@@H]4C(=O)N[C@H]4Oc4ccccc4)CCCCC3)cc2)cs1
4. CSc1ccc(C(=O)NC2(C(=O)N[C@@H]3C(=O)N[C@H]3OC(C)=O)CCCCC2)cc1

3.72
2.69
4.40
3.08

* * *

- systemTested: Cathepsin B (Homo sapiens)
- experimentalDetails: Apparent inhibitory constant against human cathepsin B
Ki'' strictly under 1000 nM means 1; at 1000 nM or over means 0.

State whether 1000 nM exceeds Ki'' recorded for CC(=O)O[C@@H]1NC(=O)[C@H]1NC(=O)C1(NC(=O)c2ccc(-c3csc(CN4CCOCC4)n3)cc2)CCCCC1 .
0

* * *

- experimentalDetails: Clearance following intravenous administration evaluated as high
- Assay type: ADME, organism-based
- studyConditions: in vivo
measuredAttribute: clearance
Give me the value, and tack the unit on after it.

Supply measured clearance of CN1CCN(c2nc(-c3ccc(C(=O)NC4(C(=O)N[C@@H]5C(=O)N[C@@H]5Oc5ccccc5)CCCCC4)cc3)cs2)CC1 in your reply.
92 mL/min/kg

* * *

Provide the reported Ki'' of each item.
- systemTested: Cathepsin S (Homo sapiens) (UniProt P25774)
- Sequence (P25774 115-331 limits assumed): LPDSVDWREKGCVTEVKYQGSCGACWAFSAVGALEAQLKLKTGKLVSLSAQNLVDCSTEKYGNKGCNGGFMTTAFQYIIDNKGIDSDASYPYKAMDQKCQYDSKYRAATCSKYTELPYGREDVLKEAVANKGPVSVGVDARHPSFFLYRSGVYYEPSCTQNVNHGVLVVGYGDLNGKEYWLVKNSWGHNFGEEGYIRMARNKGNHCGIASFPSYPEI
- experimentalDetails: Apparent inhibitory constant against human cathepsin S
Give bare numbers, in µM.

Would you please look over these solved cases?
CC(=O)O[C@@H]1NC(=O)[C@H]1NC(=O)C1(NC(=O)c2ccc(N(C)C)cc2)CCCCC1; 2.8
CN1CCN(Nc2nc(-c3ccc(C(=O)NC4(C(=O)N[C@@H]5C(=O)N[C@H]5Oc5ccccc5)CCCCC4)cc3)cs2)CC1; 140
CC(=O)O[C@@H]1NC(=O)[C@H]1NC(=O)C1(NC(=O)c2ccc(Cl)cc2)CCCCC1; 3.4
CC(=O)O[C@@H]1NC(=O)[C@H]1NC(=O)C1(NC(=O)c2ccc(-c3csc(NN4CCN(C)CC4)n3)cc2)CCCCC1; 8.8
CC(=O)O[C@@H]1NC(=O)[C@H]1NC(=O)C1(NC(=O)c2ccc(-c3csc(CN4CCOCC4)n3)cc2)CCCCC1; 12
CC(=O)O[C@@H]1NC(=O)[C@H]1NC(=O)C1(NC(=O)c2ccc(N3CCN(C)CC3)cc2)CCCCC1; 8.8
CC(=O)O[C@@H]1NC(=O)[C@H]1NC(=O)C1(NC(=O)c2ccc(N3CCOCC3)cc2)CCCCC1; 14
CN(C)c1nc(-c2ccc(C(=O)NC3(C(=O)N[C@@H]4C(=O)N[C@H]4Oc4ccccc4)CCCCC3)cc2)cs1; 10
CN1CCN(Nc2nc(-c3ccc(C(=O)NC4(C(=O)N[C@@H]5C(=O)N[C@@H]5Oc5ccccc5)CCCCC4)cc3)cs2)CC1; 150
CC(=O)O[C@@H]1NC(=O)[C@H]1NC(=O)C1(NC(=O)OCc2ccccc2)CCCCC1; 0.95

For each of the molecules below, state Ki''.
1. CSc1ccc(C(=O)NC2(C(=O)N[C@@H]3C(=O)N[C@H]3OC(C)=O)CCCCC2)cc1
2. CC(=O)O[C@@H]1NC(=O)[C@H]1NC(=O)C1(NC(=O)c2ccc(-c3csc(N(C)C)n3)cc2)CCCCC1

[3.5, 7.7]

Supply measured Ki'' of CC(=O)O[C@@H]1NC(=O)[C@H]1NC(=O)C1(NC(=O)c2ccc(-c3csc(N4CCN(C)CC4)n3)cc2)CCCCC1 in your reply.
8.5

* * *

- systemTested: UniProtKB P43236
- experimentalDetails: Apparent inhibitory constant against rabbit cathepsin K
Ki'' strictly under 1 nM means y; at 1 nM or over means n.

CC(=O)O[C@@H]1NC(=O)[C@H]1NC(=O)C1(NC(=O)c2ccc(N3CCN(C)CC3)cc2)CCCCC1; n
CC(=O)O[C@@H]1NC(=O)[C@H]1NC(=O)C1(NC(=O)c2ccc(-c3csc(N4CCN(C)CC4)n3)cc2)CCCCC1; n
CC(=O)O[C@@H]1NC(=O)[C@H]1NC(=O)C1(NC(=O)c2ccc(-c3csc(CN4CCOCC4)n3)cc2)CCCCC1; n
CC(=O)O[C@@H]1NC(=O)[C@H]1NC(=O)C1(NC(=O)c2ccc(-c3csc(NN4CCN(C)CC4)n3)cc2)CCCCC1; y
CC(=O)O[C@@H]1NC(=O)[C@H]1NC(=O)C1(NC(=O)c2ccc(Cl)cc2)CCCCC1; n
CN(C)c1nc(-c2ccc(C(=O)NC3(C(=O)N[C@@H]4C(=O)N[C@H]4Oc4ccccc4)CCCCC3)cc2)cs1; n
CC(=O)O[C@@H]1NC(=O)[C@H]1NC(=O)C1(NC(=O)c2ccc(-c3csc(N(C)C)n3)cc2)CCCCC1; n

State whether 1 nM exceeds Ki'' recorded for CN1CCN(Nc2nc(-c3ccc(C(=O)NC4(C(=O)N[C@@H]5C(=O)N[C@H]5Oc5ccccc5)CCCCC4)cc3)cs2)CC1 .
y

* * *

- systemTested: Cathepsin K (Oryctolagus cuniculus) (UniProt P43236)
- Sequence (whole entry): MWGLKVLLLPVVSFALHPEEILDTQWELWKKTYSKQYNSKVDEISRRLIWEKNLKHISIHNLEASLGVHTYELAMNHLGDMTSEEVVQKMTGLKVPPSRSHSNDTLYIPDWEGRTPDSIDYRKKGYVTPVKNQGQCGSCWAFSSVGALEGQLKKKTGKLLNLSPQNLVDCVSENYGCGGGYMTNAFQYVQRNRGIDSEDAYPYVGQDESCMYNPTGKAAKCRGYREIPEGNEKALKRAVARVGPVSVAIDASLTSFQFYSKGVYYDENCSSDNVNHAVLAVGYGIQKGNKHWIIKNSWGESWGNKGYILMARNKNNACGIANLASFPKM
- experimentalDetails: Apparent inhibitory constant against rabbit cathepsin K
measuredAttribute: Ki'' (nM)
Numbers only, in nM.

CN1CCN(Nc2nc(-c3ccc(C(=O)NC4(C(=O)N[C@@H]5C(=O)N[C@@H]5Oc5ccccc5)CCCCC4)cc3)cs2)CC1; 8.2

For each of the compounds below, state Ki''.
1. CC(=O)O[C@@H]1NC(=O)[C@H]1NC(=O)C1(NC(=O)OCc2ccccc2)CCCCC1
2. CC(=O)O[C@@H]1NC(=O)[C@H]1NC(=O)C1(NC(=O)c2ccc(N(C)C)cc2)CCCCC1

57
3.1

For each of the compounds below, state Ki''.
1. CC(=O)O[C@@H]1NC(=O)[C@H]1NC(=O)C1(NC(=O)c2ccc(N3CCOCC3)cc2)CCCCC1
2. CSc1ccc(C(=O)NC2(C(=O)N[C@@H]3C(=O)N[C@H]3OC(C)=O)CCCCC2)cc1

1. 5
2. 12

* * *

Provide the reported log10(Ki'') of each item.
- systemTested: Procathepsin L (Homo sapiens);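 further: apparent inhibition constant, determined on the human enzyme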
Give log10 of Ki'', with Ki'' taken in µM.

Would you please look over these solved cases?
CC(=O)O[C@@H]1NC(=O)[C@H]1NC(=O)C1(NC(=O)c2ccc(-c3csc(NN4CCN(C)CC4)n3)cc2)CCCCC1; 0.32
CC(=O)O[C@@H]1NC(=O)[C@H]1NC(=O)C1(NC(=O)OCc2ccccc2)CCCCC1; 0.83
CC(=O)O[C@@H]1NC(=O)[C@H]1NC(=O)C1(NC(=O)c2ccc(-c3csc(CN4CCOCC4)n3)cc2)CCCCC1; 1.04
CC(=O)O[C@@H]1NC(=O)[C@H]1NC(=O)C1(NC(=O)c2ccc(N3CCN(C)CC3)cc2)CCCCC1; 0.15
CC(=O)O[C@@H]1NC(=O)[C@H]1NC(=O)C1(NC(=O)c2ccc(Cl)cc2)CCCCC1; 0.91

For each of the compounds below, state log10(Ki'').
1. CN1CCN(Nc2nc(-c3ccc(C(=O)NC4(C(=O)N[C@@H]5C(=O)N[C@H]5Oc5ccccc5)CCCCC4)cc3)cs2)CC1
2. CC(=O)O[C@@H]1NC(=O)[C@H]1NC(=O)C1(NC(=O)c2ccc(N3CCOCC3)cc2)CCCCC1
3. CC(=O)O[C@@H]1NC(=O)[C@H]1NC(=O)C1(NC(=O)c2ccc(-c3csc(N4CCN(C)CC4)n3)cc2)CCCCC1

-0.51
1.28
0.52
